All figures here come from PubChem BioAssay (NCI).

assay: NCI Yeast Anticancer Drug Screen. Data for the bub3 strain (AID 167); details: S. cerevisiae bub3 mutant strain, at 50.0 µM (retest, dose inferred, filed as 5.0)
Compounds without any hit were thinned out: in the full panel of roughly 79,000, 15% have a hit. Calls of active or inactive are those of the source. No stated cut-off is given here; in the data, active means growth inhibition above about 70%; inactive means the rest.
Mark one answer only. Choices: active, inactive

## Task Assay result, entry COc1ccc2c(C)cc(N/N=C/c3sccc3C)nc2c1 — outcome?
## Result inactive

## Task Another molecule: CCCCCC/C(C)=N/Nc1ccc([N+](=O)[O-])cc1[N+](=O)[O-]
## Result active

## Task Another molecule: CN(C)CCn1c2ccccc2c2nc3cc4ccccc4cc3nc21
## Result active

## Task Another molecule: O=S(=O)(O)CC[S][Sn]([S]CCS(=O)(=O)O)([c]1ccccc1)[c]1ccccc1
## Result active

## Task Another molecule: COc1ccc2cc(CN3CCC(C4CCN(Cc5ccc6cc(OC)ccc6c5)CC4)CC3)ccc2c1
## Result inactive

###

Experiment: NCI Yeast Anticancer Drug Screen. Data for the sgs1 strain (AID 173);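 further: 0% = growth of vehicle-only control cultures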
Conditions: S. cerevisiae sgs1 mutant, at 100.0 µM
Procedure: Growth inhibition of yeast strains with defined genetic alterations is measured as a screen for potential anti-cancer activity. Selected strains with alterations in DNA damage repair or cell cycle control were exposed to compounds and growth inhibition was measured relative to vehicle treated controls. The strain used in this assay is sgs1
The panel holds about 79,000 compounds, 15% with a hit somewhere; the sample as a whole holds those more often. Activity calls are given as the source filed them. Cut-off read from the data, not from the text of the source: active = growth inhibition above about 70%; inactive = the rest.
Mark one answer only. Choices: 1 (active), 0 (inactive)

## Task Assay result, entry O=C1c2ccccc2C(=O)C1C(c1ccc(F)cc1)C1C(=O)c2ccccc2C1=O — outcome?
## Result 1

## Task Another molecule: CCCC#CCOC(=O)c1cc([N+](=O)[O-])cc([N+](=O)[O-])c1
## Result 1

## Task Another molecule: Cc1c(N=Nc2ccc(Cl)cc2)c(C)n(C2OC(CO)C(O)C(O)C2O)c(=S)c1C#N (stereo not given)
## Result 1

## Task Another molecule: CCOC(=O)C(NC(=O)c1ccccc1)[CH](c1ccccc1)[Sn]([c]1ccccc1)([c]1ccccc1)[c]1ccccc1 (stereo not given)
## Result 1

## Task Another molecule: Cc1ccc(N(C=O)c2c([N+](=O)[O-])cc([N+](=O)[O-])c3c2=[N+]([O-])CN=3)cc1
## Result 1

## Task Another molecule: CCCCCCCCCCCCOC1C(COCCN2CCCC2)OC2OC(C)(C)OC21 (stereo not given)
## Result 1

## Task Another molecule: COc1ccc2nc3cccc([N+](=O)[O-])c3c(NCCCO)c2c1
## Result 1

## Task Another molecule: Nc1cccc2cc(Cl)cnc12
## Result 0

## Task Another molecule: O=C1OC(c2ccc(Cl)cc2)Sc2ccccc21 (stereo not given)
## Result 1

## Task Another molecule: COc1cc(C(C)C(C(=O)O)C(=O)C(=O)O)cc(OC)c1OC (stereo not given)
## Result 0

###

experiment: NCI Yeast Anticancer Drug Screen. Data for the wt2 strain (AID 169);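 further: 0% = growth of vehicle-treated yeast cultures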; details: S. cerevisiae wt2 strain growth inhibition; at 3.7 µM; stronger effect = higher value
The panel holds about 79,000 compounds, 15% with a hit somewhere; the sample as a whole holds those more often.
endpoint_name: growth inhibition (%)
Please state the figure in %; there is no need to write the unit.

## Task Which growth inhibition is reported for this molecule? O=C(O)NCC1CCCCC1 (tested in a mixture with another compound)
## Result 2

## Task Another molecule: Nc1c([N+](=O)[O-])cc2c3c(cccc13)CC2
## Result 10

## Task Another molecule: CC1(C)CC(=O)C(C(CC(c2ccccc2)c2cc3c(cc2O)OCO3)C2=C(O)CC(C)(C)CC2=O)=C(O)C1 (stereo unspecified)
## Result -5

## Task Another molecule: O=c1c(Br)cc2c(-c3ccccc3)c3cc(Br)c(O)c(Br)c3oc-2c1Br
## Result 17

## Task Another molecule: S=C1NC2=C(CSC/C2=C\c2ccc(Cl)cc2)C(c2ccc(Cl)cc2)N1 (stereo unspecified)
## Result 31

## Task Another molecule: CN(C)CCC(=O)c1c[nH]c2ccccc12
## Result -46

## Task Another molecule: S=c1[nH]nc(Cc2ccccc2)c(=S)[nH]1
## Result -1

## Task Another molecule: CC(=O)c1ccc(NCN2C(=O)c3ccccc3C2=O)cc1
## Result -36

## Task Another molecule: CN(Cc1cccc2ccccc12)Cc1cccc2ccccc12
## Result 0

## Task Another molecule: NNc1nnc(-c2ccccc2)nc1Cc1ccccc1
## Result -30

## Task Another molecule: c1cc2ccc3cc4ncccc4c4ccc(c1)c2c34
## Result 0

## Task Another molecule: Cc1cccc[c]1[Sn]([Cl])([S]/C(C#N)=N/N=C/c1ccc(N(C)C)cc1)[c]1ccccc1C
## Result -2

## Task Another molecule: CC1=Cc2ccc(C)cc2C(=O)C1=O
## Result -6

## Task Another molecule: O=C(Cc1ccccc1)c1ccc(O)cc1
## Result -17

## Task Another molecule: CC(C)OC(CCC#N)c1ccc(Cl)cc1 (stereo unspecified)
## Result -21

## Task Another molecule: O=C1c2ccccc2-c2ccc(NC(=O)C3CCCCC3C(=O)O)cc21 (stereo unspecified)
## Result -1

## Task Another molecule: Cc1ccc(P(c2ccc(C)cc2)c2ccc(C)cc2)cc1
## Result -15

## Task Another molecule: CCCCCCC(CCl)c1sc(-c2csc(CCNC(=O)OC(C)(C)C)n2)nc1C(=O)OC (stereo unspecified)
## Result -5

## Task Another molecule: CC(C)c1ccc(C2NC(=S)NC3=C2c2ccccc2C3=O)cc1 (stereo unspecified)
## Result 1

## Task Another molecule: O=[N+]([O-])c1cccc2nc3ccccc3c(NCCC[N+]3([O-])CCOCC3)c12
## Result -1

## Task Another molecule: O=C1C(Br)=CC(Br)(Br)C=C1Br
## Result -11

## Task Another molecule: O=CC(=C(I)I)c1ccccc1
## Result 5

## Task Another molecule: Nc1nc(Nc2ccccc2)nc(Nc2ccccc2)n1
## Result -8

## Task Another molecule: COc1ccc2nc(N/N=C/c3sccc3C)cc(C)c2c1
## Result 4

## Task Another molecule: c1ccc(C2=NNC3c4ccccc4-c4ccccc4N3C2)cc1 (stereo unspecified)
## Result -5

## Task Another molecule: CN(C)/N=N/c1nc[nH]c1C(N)=O
## Result -1

## Task Another molecule: c1cc(Nc2ccc3c(c2)OCO3)c2cc(C3CCCCC3)ccc2n1
## Result -1

## Task Another molecule: CCOC(=O)C(NC(=O)c1ccccc1)[CH](c1ccccc1)[Sn]([c]1ccccc1)([c]1ccccc1)[c]1ccccc1 (stereo unspecified)
## Result -2

## Task Another molecule: O=C(Nn1c(-c2ccccc2)nc2ccccc2c1=O)c1ccc(Cl)cc1
## Result 6

## Task Another molecule: COc1ccc2nc3cccc([N+](=O)[O-])c3c(NCCCO)c2c1
## Result 33

## Task Another molecule: COc1ccc2cc(CN3CCC(C4CCN(Cc5ccc6cc(OC)ccc6c5)CC4)CC3)ccc2c1
## Result 15

## Task Another molecule: CN(C)CCNC(=O)c1cccc2nc3c(ccc4ccccc43)nc12
## Result 6

## Task Another molecule: COc1ccc(CCN2C(=O)C=CC2=O)cc1OC
## Result 5

## Task Another molecule: CC(=O)CC[N+](C)(C)C
## Result -1

## Task Another molecule: C=Cc1c(C)c(O)cc2c1-c1ccc(O)c(C)c1CC2
## Result -43

## Task Another molecule: Cn1c(COc2ccc(/C=N/NC(=O)CCC(=O)N/N=C/c3ccc(OCc4c[n+]5ccccc5n4C)cc3)cc2)c[n+]2ccccc12
## Result 5

## Task Another molecule: CCOc1nc(OCC)nc(-c2cccn2-c2ccccc2)n1
## Result 8

## Task Another molecule: O=C1c2ccccc2C(=O)C1C(c1ccc(F)cc1)C1C(=O)c2ccccc2C1=O
## Result 2

## Task Another molecule: CCOC(=O)c1sc2[n+](c1C)C(=O)/C(=C/c1cc(OC)c(OC)c(OC)c1)S2
## Result 3

## Task Another molecule: O=C1c2ccc(O)cc2C(=O)c2c(O)ccc(O)c21
## Result 19

## Task Another molecule: O=C1C=CC(=Nc2ccc3c(c2)Cc2cc(Cl)ccc2-3)O1
## Result 28

## Task Another molecule: O=C(N/N=C/c1ccc2c(c1)CCC2)c1ccccc1[N+](=O)[O-]
## Result 12

## Task Another molecule: CSc1ccc2c(c1)C(N1CCN(C)CC1)Cc1ccccc1S2 (stereo unspecified)
## Result -35

## Task Another molecule: COc1ccc(/C=C2\CCc3ccccc3C2=O)cc1OC
## Result -25

## Task Another molecule: c1ccc2cc(OCC3CO3)c(OCC3CO3)cc2c1 (stereo unspecified)
## Result -33

## Task Another molecule: BrC/C=C/C[P+](c1ccccc1)(c1ccccc1)c1ccccc1
## Result 9
